Molecular target: Scer_Rsc2 261-636 WT (Saccharomyces cerevisiae, UniProt Q06488 261-636)
Sequence (Q06488 261-636): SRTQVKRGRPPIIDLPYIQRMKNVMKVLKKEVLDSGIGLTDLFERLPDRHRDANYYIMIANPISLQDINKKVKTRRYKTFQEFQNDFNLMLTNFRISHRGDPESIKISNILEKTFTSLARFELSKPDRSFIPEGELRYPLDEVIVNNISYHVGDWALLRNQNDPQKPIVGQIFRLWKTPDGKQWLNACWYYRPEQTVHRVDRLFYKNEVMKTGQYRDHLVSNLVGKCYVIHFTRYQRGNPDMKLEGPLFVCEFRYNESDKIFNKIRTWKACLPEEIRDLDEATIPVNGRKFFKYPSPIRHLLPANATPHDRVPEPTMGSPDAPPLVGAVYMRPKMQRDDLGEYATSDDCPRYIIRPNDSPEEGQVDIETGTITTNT
Experiment: EMSA
parameterMeasured: Kd (nM)
Please respond with the number in nM and leave the unit unwritten.

q: State its Kd for this binder: A-rich (polyA) probe (dsDNA) DNA 1: GCATCAGTCTTATAGGAAGAAAAACAAAAAGTCCATCGATCTAG DNA 2: CTAGATCGATGGACTTTTTGTTTTTCTTCCTATAAGACTGATGC
a: 2900
